target: STING (Homo sapiens, UniProt Q86WV6, G230A/H232R/R293Q/R71H); construct: host or cells: THP1-Dual cells; experiment: THP1-Dual reporter assay (IRF-luciferase, Quanti-Luc) for activation of STING; format: cell-based; settings: qualitative comparison of dose-response curves
Sequence (Q86WV6 whole entry R71H/G230A/H232R/R293Q): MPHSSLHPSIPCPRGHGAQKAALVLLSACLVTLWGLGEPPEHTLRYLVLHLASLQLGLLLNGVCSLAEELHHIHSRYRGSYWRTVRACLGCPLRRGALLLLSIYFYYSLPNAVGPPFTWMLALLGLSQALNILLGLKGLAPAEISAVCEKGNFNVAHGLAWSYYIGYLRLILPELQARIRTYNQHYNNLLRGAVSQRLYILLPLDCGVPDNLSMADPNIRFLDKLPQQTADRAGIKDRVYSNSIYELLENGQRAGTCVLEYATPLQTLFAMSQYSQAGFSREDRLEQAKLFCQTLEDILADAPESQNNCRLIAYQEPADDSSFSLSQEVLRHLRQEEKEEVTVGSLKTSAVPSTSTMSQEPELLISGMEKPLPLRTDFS
readoutLabel: STING activation / interferon production in THP-1 Dual reporter cells, in words

molecule	measuredResult
CCn1nc(C)cc1C(=O)Nc1nc2cc(C(N)=O)cc(OC)c2n1C/C=C/Cn1c(NC(=O)c2cc(C)nn2CC)nc2cc(C(N)=O)cc(OCCCNC(=O)OCc3ccc(NC(=O)[C@H](CCCNC(N)=O)NC(=O)[C@@H](NC(=O)CCCCC(=O)N4Cc5ccccc5C#Cc5ccccc54)C(C)C)cc3)c21 [diABZI-V/C-DBCO (9), diABZI-V/C-DBCO]	elicit STING activation
CCn1nc(C)cc1C(=O)Nc1nc2cc(C(N)=O)cc(OC)c2n1C/C=C/Cn1c(NC(=O)c2cc(C)nn2CC)nc2cc(C(N)=O)cc(OCCCNC(=O)CCCCC(=O)N3Cc4ccccc4C#Cc4ccccc43)c21 [diABZI-DBCO (8), diABZI-DBCO]	elicit STING activation

----------
molecular target: STING (Mus musculus); construct: from tissue; host or cells: primary splenocytes from spleens of female C57BL/6 mice; experiment: Interferon-β sandwich ELISA on isolated primary murine splenocytes; format: cell-based
Sequence (Q3TBT3 whole entry): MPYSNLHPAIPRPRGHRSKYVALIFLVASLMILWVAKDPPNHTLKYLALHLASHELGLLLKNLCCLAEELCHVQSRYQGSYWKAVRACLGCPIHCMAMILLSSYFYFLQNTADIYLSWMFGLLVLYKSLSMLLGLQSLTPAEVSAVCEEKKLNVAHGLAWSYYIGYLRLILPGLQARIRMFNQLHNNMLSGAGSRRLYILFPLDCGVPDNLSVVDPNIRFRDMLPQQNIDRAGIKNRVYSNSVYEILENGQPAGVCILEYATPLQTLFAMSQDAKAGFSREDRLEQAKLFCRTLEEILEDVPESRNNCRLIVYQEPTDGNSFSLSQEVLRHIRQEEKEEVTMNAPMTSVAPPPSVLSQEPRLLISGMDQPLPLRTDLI
readoutLabel: EC50

**Query** Record request: EC50 value, item CCn1nc(C)cc1C(=O)Nc1nc2cc(C(N)=O)cc(OC)c2n1C/C=C/Cn1c(NC(=O)c2cc(C)nn2CC)nc2cc(C(N)=O)cc(OCCCN)c21
**Result** ~2.24 nM

----------
target: STING (Homo sapiens, UniProt Q86WV6, G230A/H232R/R293Q/R71H); construct: host or cells: THP1-Dual cells; test: THP1-Dual reporter assay (IRF-luciferase, Quanti-Luc) for activation of STING; assay type: cell-based; conditions: FIG. 3A; 24 hours; read-out: estimated EC50, IRF signaling in THP1-Dual reporter cells
Kindly supply the reported EC50 values for the records listed here.
Numbers only, in nM.

compound	EC50, nM
CCn1nc(C)cc1C(=O)Nc1nc2cc(C(N)=O)cc(OC)c2n1C/C=C/Cn1c(NC(=O)c2cc(C)nn2CC)nc2cc(C(N)=O)cc(OCCCN)c21 [diABZI-amine (1)]	60.9

Below is a list of compounds. For each, state its recorded EC50.
1. CCn1nc(C)cc1C(=O)Nc1nc2cc(C(N)=O)cc(OC)c2n1C/C=C/Cn1c(NC(=O)c2cc(C)nn2CC)nc2cc(C(N)=O)cc(OCCCNC(=O)CCCCCN3C(=O)C=CC3=O)c21 [diABZI-Mal (2), diABZI-Mal]
2. CCn1nc(C)cc1C(=O)Nc1nc2cc(C(N)=O)cc(OC)c2n1C/C=C/Cn1c(NC(=O)c2cc(C)nn2CC)nc2cc(C(N)=O)cc(OCCCNC(=O)OCc3ccc(NC(=O)[C@H](CCCNC(N)=O)NC(=O)[C@@H](NC(=O)CCCCCN4C(=O)C=CC4=O)C(C)C)cc3)c21 [diABZI-V/C-Mal (3), diABZI-V/C-Mal]

**Result**
[20.5, 314]
